RECORDED METRIC: pIC50
Please treat pIC50 as minus the base-10 logarithm of the molar concentration.

Prompt line: For HIV-1 IN (WT) (Human immunodeficiency virus type 1 group M subtype B, UniProt P12497), provide pIC50 of CC(C)(C)OC(=O)N1CCC(C(=O)N[C@@H](Cc2ccc3ccccc3c2)C(=O)O)(c2ccccc2)CC1 [Compound 14e] please.
Response line: 4.04

* * *

- MEASURED ON: HIV-1 IN G140S/Q148H (Human immunodeficiency virus type 1 group M subtype B, UniProt P12497, G1287S/Q1295H)
- TEST SUMMARY: HTRF-based integration assay against drug-resistant IN
- Format: biochemical
RECORDED METRIC: pIC50
Please treat pIC50 as minus the base-10 logarithm of the molar concentration.

Prompt line: May I ask what pIC50 has been recorded for CC(C)(C)OC(=O)N1CCC(C(=O)N[C@@H](Cc2ccc3ccccc3c2)C(=O)O)(c2ccccc2)CC1 [Compound 14e] ?
Response line: 3.99
